Origin of measurements: PubChem BioAssay (NCI)

Tested on: CCRF-CEM leukemia
assayMethodText: NCI tumour cell line growth inhibition, 48 h
measureName: TGI

compound=CC(C)(C)C(=O)C(C(=O)C(C)(C)C)C(=O)C(C)(C)C result="> 100 µM"
compound=O=C(O)CN1CCN2CCOCCOCCN(CC1)CCN(CC(=O)O)CC2 result="> 100 µM"
compound=Cc1ccc(NC(=O)CSc2nc(C)nc3c2sc(=S)n3-c2ccccc2)cc1 result="> 10 µM"
compound=Nc1nc(N)c2c(n1)NC(=O)c1c(c3ccccc3n1Cc1ccc(Cl)cc1)C2 result="42.8 µM"

Short answer on CCRF-CEM leukemia for N#CC(C(=O)CCC(=O)C(C#N)c1ccccc1)c1ccccc1 (stereo not given) , TGI: > 100 µM

###

Test system: RXF 393 renal
assayMethodText: NCI tumour cell line growth inhibition, 48 h; in the data active = GI50 below about 0.43 µM; inactive = the rest
Reply using exactly one outcome from TRUE = active, FALSE = inactive

compound=Cc1cc(S(N)(=O)=O)c(S/C(CC(C)C)=N\Nc2ccc([N+](=O)[O-])cc2)cc1Cl class=FALSE
compound=CC(C)[C@H](CO)Nc1nc(Nc2ccc(C(=O)NCCNS(=O)(=O)c3cccc4c(N(C)C)cccc34)c(Cl)c2)c2ncn(C(C)C)c2n1 class=TRUE
compound=CCn1c(CN2CCN(Cc3ccccc3)CC2)nc2cc(NC(=O)c3cccs3)ccc21 class=FALSE
compound=N#Cc1nc2c(S(=O)(=O)c3ccccc3)c(N)n(Cc3cccnc3)c2nc1C#N class=FALSE
compound=CC(C)(O)CS(=O)(=O)Nc1ccc2c(c1)CCN(C(=O)COc1cccnc1)C2 class=FALSE

Next up:
Test call for this compound, please: O=C1/C(=C/c2ccccc2)CN(C(=O)c2cccnc2)C/C1=C\c1ccccc1 FALSE

###

Each entry below carries its reported TGI.
Tested on: MOLT-4 leukemia
assayMethodText: NCI tumour cell line growth inhibition, 48 h

Sample answers from the record:
compound=CNC(=O)c1n[nH]nc1Sc1c([N+](=O)[O-])ncn1C measurename=TGI result="> 100 µM"
compound="N#CC(C(=O)/C(=N/N)C(C#N)c1ccccc1)c1ccccc1 (stereo unspecified)" measurename=TGI result="> 100 µM"

Short answer on MOLT-4 leukemia for COC(=O)c1ccccc1C1CN=NC12Cc1ccc(C)c(C)c1C2=O (stereo unspecified) , TGI: > 100 µM

###

System: SNB-75 CNS
assayMethodText: NCI tumour cell line growth inhibition, 48 h; in the data active = GI50 below about 0.43 µM; inactive = the rest
Reply using exactly one outcome from y = active, n = inactive

Look over these answered cases.
compound=C=C1C(=O)O[C@H]2[C@H]1CC/C(Cn1cc(-c3cc(C(F)(F)F)cc(C(F)(F)F)c3)nn1)=C\CC[C@@]1(C)O[C@@H]21 class=n
compound=O=C(CN1CCN(CCCOc2c(-c3ccccc3)oc3ccccc3c2=O)CC1)Nc1ccc(Cl)cc1C(=O)c1ccccc1Cl class=n
compound=CC[C@H](Nc1nc(NCc2cnc(C)cc2C)c2ncn(C(C)C)c2n1)[C@@H](C)O class=y
compound=O=C1/C(=C/c2ccccc2)CN(C(=O)c2cccnc2)C/C1=C\c1ccccc1 class=n
compound=Fc1ccc2c(c1)c(-c1nc(-c3c[nH]c4ncccc34)cs1)cn2CCCN1CCCCC1 class=n
compound="O=C1CCCCCCCC/C=C\\CC(c2ccco2)O1 (centres undefined)" class=n
compound=O=c1c2ccccc2n(C[C@H]2CO2)c2ccccc12 class=n
compound=C=CC(=O)N1CCN(c2nc(=O)n(-c3c(C)ccnc3C(C)C)c3nc(-c4c(O)cccc4F)c(F)cc23)[C@@H](C)C1 class=n

Next up:
Test call for this compound, please: Ic1ccccc1-c1ccccc1 n

###

Test system: HS 578T breast
assayMethodText: NCI tumour cell line growth inhibition, 48 h
measureName: GI50

compound=COc1ccc(-n2nnnc2-c2c[nH]c3c(F)cc(F)cc23)cc1 measuredon="HS 578T breast" result="> 100 µM"

Briefly, GI50 measured for Cc1cc(S(N)(=O)=O)c(S/C(CC(C)C)=N\Nc2ccc([N+](=O)[O-])cc2)cc1Cl : 11.9 µM

Briefly, GI50 measured for C=C(CN1C(=O)[C@H]2CCCN2C(=O)c2ccccc21)c1ccc(C(=O)O)cc1 : > 100 µM

Briefly, GI50 measured for O=C(CN1CCN(CCCOc2c(-c3ccccc3)oc3ccccc3c2=O)CC1)Nc1ccc(Cl)cc1C(=O)c1ccccc1Cl : 8.45 µM

Briefly, GI50 measured for O=C1NC(O)C(c2c[nH]c3ccccc23)=C1c1c[nH]c2ccccc12 (stereo not given) : 25 µM

###

System: DU-145 prostate
assayMethodText: NCI tumour cell line growth inhibition, 48 h
Each entry below carries its reported GI50.

compoundstructurestring=COC(=O)c1c2c(c(C)[n+]([O-])c1C)C(=O)C=C(NCc1ccc(F)c(Cl)c1)C2=O measurename=GI50 result="0.566 µM"
compoundstructurestring=NC(N)=N/N=C\c1cccc(OCc2ccccc2)c1 measurename=GI50 result="11.4 µM"
compoundstructurestring=O=c1ccc2nc(-c3ccccc3)nn(-c3ccccn3)c-2c1 measurename=GI50 result="15.5 µM"
compoundstructurestring=O=c1nc2n(-c3ccc(Cl)cc3)c3ccc([N+](=O)[O-])cc3cc-2c(=O)[nH]1 measurename=GI50 result="29.1 µM"

Briefly, GI50 measured for COc1cc2c3c(n(CCCN)c(=O)c2cc1OC)-c1cc2c(cc1/C3=C\CCN)OCO2 : 2.52 µM

Briefly, GI50 measured for O=C(Nc1cc(Cl)cc(Cl)c1)c1ccc(NC2=C(Cl)C(=O)N(Cc3ccc(Cl)cc3Cl)C2=O)cc1 : 20.1 µM

Briefly, GI50 measured for Cc1ccccc1N=Nc1ccc(NC(=O)c2ccnn2C)c(C)c1 : > 100 µM

Briefly, GI50 measured for Cc1ccc(-n2c3c(c4c(CN(C)C)c(O)ccc42)CCc2ccccc2C3=O)cc1 : 37.3 µM

Briefly, GI50 measured for O=C(c1ccco1)c1nc2cc(Cl)ccc2[n+]([O-])c1C(F)(F)F : 76.5 µM

Briefly, GI50 measured for CCOC(=O)c1[nH]c(Br)c(-c2ccc(Br)cc2)c1Br : 2.19 µM

###

Test system: SF-539 CNS
assayMethodText: NCI tumour cell line growth inhibition, 48 h; in the data active = GI50 below about 0.43 µM; inactive = the rest
Reply using exactly one outcome from Yes (active), No (inactive)

Test call for this molecule, please: C#CCC(Cc1cnc2nc(N)nc(N)c2n1)c1ccc(C(=O)N[C@@H](CCC(=O)O)C(=O)O)cc1 (some centres undefined) Yes

Test call for this molecule, please: COc1ccccc1CCN=C1NC(=O)/C(=C/c2ccc3ncccc3c2)S1 No

Test call for this molecule, please: COc1ccc(-n2nnnc2-c2c[nH]c3c(F)cc(F)cc23)cc1 No

Test call for this molecule, please: Cc1ccc(/C=C2/SC(Nc3nc(-c4csc(NC5=NC(=O)/C(=C\c6ccc(C)cc6)S5)n4)cs3)=NC2=O)cc1 No

Test call for this molecule, please: Ic1ccccc1-c1ccccc1 No

###

Each entry below carries its reported TGI.
Tested on: NCI/ADR-RES ovarian
assayMethodText: NCI tumour cell line growth inhibition, 48 h

Sample answers from the record:
molecule=COc1ccccc1CCN=C1NC(=O)/C(=C/c2ccc3ncccc3c2)S1 measurename=TGI result="> 25 µM"
molecule="Nc1ncnc2c1nc(Cl)n2C1OC2COP(=O)(O)OC2C1O (stereo unspecified)" measurename=TGI result="> 300 µM"
molecule=O=C(COc1ccc(OCC(=O)N2C(=O)CSC2=Nc2ccccc2)cc1)N1C(=O)CSC1=Nc1ccccc1 measurename=TGI result="> 100 µM"

Briefly, TGI measured for Cc1ccc(N=Nc2ccc(O)c(CN(C)C)c2)cc1C : 52.6 µM

Briefly, TGI measured for CC(C)=CCNc1ncnc2nc[nH]c12 : > 100 µM

Briefly, TGI measured for O=C(Nc1cccc(Cl)c1)c1ccc(NC2=C(Cl)C(=O)N(Cc3ccccc3)C2=O)cc1 : 24.9 µM

###

Test system: MDA-N
assayMethodText: NCI tumour cell line growth inhibition, 48 h
measureName: TGI

compound=Cc1ccc(N=Nc2ccc(O)c(CN(C)C)c2)cc1C measuredon=MDA-N measurename=TGI result="> 100 µM"
compound=Cc1nc(Nc2ccccc2Cl)sc1C(=O)CC(=O)C(=O)Nc1c(Cl)cccc1Cl measuredon=MDA-N measurename=TGI result="> 100 µM"
compound=O=c1[nH]/c(=C/c2ccc(OCc3ccccc3)cn2)c(=O)[nH]/c1=C/c1ccc([N+](=O)[O-])cc1 measuredon=MDA-N measurename=TGI result="> 100 µM"
compound=[O-][n+]1onc2c1CCC(=N\O)/C2=N/Nc1ccccc1 measuredon=MDA-N measurename=TGI result="> 100 µM"
compound=Nc1nc(N)c(NC(=O)CCCO)c(=O)[nH]1 measuredon=MDA-N measurename=TGI result="> 100 µM"

Short answer on MDA-N for c1ccc(Cc2nc(Cc3n[nH]c(Cc4ccccc4)n3)n[nH]2)cc1 , TGI: > 100 µM

Short answer on MDA-N for NNC(=O)c1ccccc1NC(=O)/C(=C/c1ccccc1O)NC(=O)c1ccccc1 , TGI: > 100 µM

Short answer on MDA-N for Nc1ncnc2c1nc(Cl)n2C1OC2COP(=O)(O)OC2C1O (centres undefined) , TGI: > 300 µM

Short answer on MDA-N for CN(C)c1ccc(/C=c2/c3ccccc3n3nc4ccccc4c23)cc1 , TGI: 33.6 µM

Short answer on MDA-N for CC(=O)Nc1ccc(NC(=O)c2c(Cl)c(Cl)c(Cl)c(Cl)c2-c2nc3ccccc3[nH]2)cc1 , TGI: > 100 µM
